Collected IC50 values appear next to each entry.
Target under test: UniProt:Q60613
Sequence (Q60613 whole entry): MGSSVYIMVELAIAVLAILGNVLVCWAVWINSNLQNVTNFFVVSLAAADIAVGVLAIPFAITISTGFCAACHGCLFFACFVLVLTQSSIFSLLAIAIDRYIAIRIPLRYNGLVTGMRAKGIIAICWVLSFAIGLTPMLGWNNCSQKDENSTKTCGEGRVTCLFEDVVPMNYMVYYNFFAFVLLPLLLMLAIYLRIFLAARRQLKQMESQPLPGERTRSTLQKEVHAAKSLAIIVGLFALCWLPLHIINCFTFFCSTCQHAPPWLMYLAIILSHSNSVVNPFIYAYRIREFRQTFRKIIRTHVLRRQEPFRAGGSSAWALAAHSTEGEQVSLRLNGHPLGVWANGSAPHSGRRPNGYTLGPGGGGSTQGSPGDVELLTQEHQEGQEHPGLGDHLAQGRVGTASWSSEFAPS
Protocol summary: cAMP inhibition assay in mA2a/CHO cells
Type: cell-based
Conditions: adenosine stimulation, read-out: cAMP & FLIPR IC50 (nM) mA2a
Observed property: IC50 (nM)

# Compound, Target under test, Reported
data = [
    ("Nc1nc(-c2ccc(F)cc2)c(-c2ccnc(Cl)c2)c2nc(Cc3ncccc3F)nn12", "UniProt:Q60613", 70),
    ("Cc1coc(-c2nc(N)n3nc(Cc4c(F)cccc4F)nc3c2-c2ccc(=O)n(C)c2)n1", "UniProt:Q60613", 245),
    ("Cn1cc(-c2c(-n3cccn3)nc(N)n3nc(Cc4ncccc4F)nc23)ccc1=O", "UniProt:Q60613", 125),
    ("Cn1cc(-c2c(-c3ccc(F)cc3)nc(N)n3nc(Cc4cccc(N)n4)nc23)ccc1=O", "UniProt:Q60613", 23),
    ("Cc1cc(-c2c(-c3ccc(F)cc3)nc(N)n3nc(C(C)c4c(F)cccc4F)nc23)ccn1 (stereo not shown)", "UniProt:Q60613", 316),
    ("Cc1cc(-c2c(-c3ncco3)nc(N)n3nc(Cc4ncccc4F)nc23)cc(Cl)n1", "UniProt:Q60613", 63),
    ("Cc1cc(-c2c(-c3ccc(F)cc3)nc(N)n3nc(Cc4nccs4)nc23)ccn1", "UniProt:Q60613", 78),
    ("Cn1cc(-c2c(-c3nccs3)nc(N)n3nc(Cc4c(F)cccc4F)nc23)ccc1=O", "UniProt:Q60613", 5.9),
    ("Cc1cc(-c2c(-c3ccc(F)cc3)nc(N)n3nc(Cc4cccc(N(C)C)n4)nc23)ccn1", "UniProt:Q60613", 51),
    ("Cn1cc(-c2c(-c3ccc(C#N)cc3)nc(N)n3nc(Cc4ncccc4F)nc23)ccc1=O", "UniProt:Q60613", 219),
    ("Cc1cnc2ccc(-c3c(-c4ncco4)nc(N)n4nc(Cc5ncccc5F)nc34)cn12", "UniProt:Q60613", 0.8),
    ("Nc1nc(-c2ncco2)c(-c2ccc3nccn3c2)c2nc(Cc3ncccc3F)nn12", "UniProt:Q60613", 51),
    ("Nc1nc(-c2ccc(F)cc2)c(-c2ccc(=O)n(C3CS(=O)(=O)C3)c2)c2nc(Cc3c(F)cccc3F)nn12", "UniProt:Q60613", 16),
    ("Nc1nc(-c2ncco2)c(-c2ccc3nccn3c2)c2nc(Cc3ncccc3OC(F)F)nn12", "UniProt:Q60613", 1.2),
    ("COc1cccc(-c2nc(N)n3nc(Cc4ncccc4F)nc3c2-c2ccc(=O)n(C)c2)c1", "UniProt:Q60613", 17),
    ("Cc1cc(-c2c(-c3ccc(F)cc3)nc(N)n3nc(Cc4ncccc4F)nc23)cc(Cl)n1", "UniProt:Q60613", 9.6),
]
